# procedure summary: yeast display, Sf9 membrane polyspecificity reagent, FACS + sequencing; frameworks hold sequencing errors
measurement label: polyreactivity (PSR sort gate)

Field: example entries. Status: answers known.
residue codes: QVQLVESGGGLVQAGGSLRLSCAASGSTFLRNAMGWYRQAPGKEWELVATISTGSGRTYYADSVKGRFTISRDNAKNTVYLQMHSLKPEDTAVYYCAASRTLRKHRYEYWGQGTQVTVSS
polyreactivity (PSR sort gate): high polyreactivity

residue codes: QVQLVESGGGLVQAGGSLRISCAASGYTFGKNAMGWYRQAPGKERELVAGISSRGGSTYYADSVKGRFTISRDNAKNTLYLQMNSLKPEDTAVYYCAAVAYTGGPRKLGFNYWGQGTQVTVSS
polyreactivity (PSR sort gate): high polyreactivity

residue codes: QVQLVESGGGLVKAGGSLRLSSAASGRILYGNAMGGYRQAPGKERELVAANTRRGGSTYYADSVKGRFTISRDNAKNTVSLQMNSLKPEDTAVYYCAASRYTSYYKDGCYAYYYWGQGTQVTVSS
polyreactivity (PSR sort gate): high polyreactivity

residue codes: QVQLVESGGGLVQAGGSLRLSCAASGFTFTYYALGWYRQAPGKERQLVAAISSRGGRTYYADSVKVRFRISRDNAKNTVYLLMKSLKPEDTAVYYCAARVYKGWPTHYDYLGQGTQVTVSS
polyreactivity (PSR sort gate): high polyreactivity

residue codes: QVQLVESGGGLVQAGGSHRLSCAASGIIFILYTMGWYRQAPGKERELVATISSGGGSTFYADSVKGRFTISRDNAKNTVYLQMNSLKPEDTAVYYCAAYPVFGYSYDYWGQGTQVTVSS
polyreactivity (PSR sort gate): low polyreactivity

residue codes: QVQLVESGGGLVQAGGSLRLSCAASGRILRFYAMGWYRQAPGKERELVATISRSGGSTYYADSVKGRFTISRDNAKNTVYLQMNSLKPEDTAVYYSNAKFKGVSYKMDYWGQGTQVTVSS
polyreactivity (PSR sort gate): high polyreactivity

residue codes: QVQLVESGGGLVQAGGSLRLSCAASGITFGPYAMGWYRQAPGKERELVATISSSGGSTYYADSVKGRFTISRDNAKNTVYLQMNSLIPEDTAVYYCNAGYAPYLGAYDYWGQGTQVTVSS
polyreactivity (PSR sort gate): low polyreactivity

residue codes: QVQLVESGGGLVQAGGSLRLSCAASGSTFIWYAMGWYRQAPGKERELVAAINRSGGSTYYADSVKGRFTISRDNAKNTVYLQMNSLKPEDTAVYYCAAQGGGYRGLKYYYWGQGTQVTVSS
polyreactivity (PSR sort gate): high polyreactivity

residue codes: QVQLVESGGGLVQAGGSLRLSCAASGLTFWYYAMGWYRQAPGKERELVARITRSGVGTYYADSVKGRFTISRDNAKNTVYLQMNSLKPEDTAVYYCNARYQYSWVRYGYDYWGQGTQVTVSS
polyreactivity (PSR sort gate): high polyreactivity

residue codes: QVQLVESGGGLVQAGGRLRLSCAASGFTFSYNTMGWYRQEPGKERELVAAITGDVSTNYADSVKGRFTISRDNAKNTVYLQMNSVKPEDTAVYYCAARPNFPGYEDLSVDYDYWGQGTQVTVSS
polyreactivity (PSR sort gate): low polyreactivity

Okay, now this sequence:
Q: # lookup: polyreactivity (PSR sort gate) of KVQVVESGGCLVQAGGSLRLSCAASGFSFGGYAMGCYRQAPGKDRELVAAINYRGGSTNYADSVKGRFTISRDNAKNTVYFQMNSLKPEDTAVYYCAASYFYWRANRGPRYYWGQGTQVTVSS
Ans: high polyreactivity

The values you see were collected from the nanobody polyreactivity screen of Harvey et al. (2022).
